Target: T1, Med25-ACID_(532-680), activator interaction domain (ACID) of mediator complex subunit 25 (Arabidopsis thaliana, UniProt Q7XYY2 532-680)
T1 construct: 15N- or 13C,15N-labelled in the NMR titrations; unlabelled in ITC, CEST and stopped-flow; also called AtMed25-ACID; ACID domain; source: E. coli BL21 DE3, purified (glutathione Sepharose, TEV cleavage, cation exchange, SEC); not shown: GST, N-terminal, cleaved
T1 sequence (looked up): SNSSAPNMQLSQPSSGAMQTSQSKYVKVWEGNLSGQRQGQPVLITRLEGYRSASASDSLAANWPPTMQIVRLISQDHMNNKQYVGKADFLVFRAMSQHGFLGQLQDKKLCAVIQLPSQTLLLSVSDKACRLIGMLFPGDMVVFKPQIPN
Test: ITC; 25 °C; 50 mM HEPES pH 7.4, 100 mM NaCl, 0.5 mM TCEP; ~1:10 cell to syringe concentration ratio, cell around 15 µM for high-affinity fragments; one-set-of-sites model; which protein was in the cell is not stated
Settings: both partners purified
QUANTITY: dH (kJ/mol)
Provide the reading as a plain figure in kJ/mol.

DREB2A_(195-276) D241A (domain or fragment, Arabidopsis thaliana, UniProt O82132 195-276, looked up, source: E. coli BL21 DE3, purified (glutathione Sepharose, TEV cleavage, SEC); not shown: GST, N-terminal, cleaved) VKADKHWLSEFEHNYWSDILKEKEKQKEQGIVETCQQQQQDSLSVAAYGWPNDVDQSHLDSSDMFDVDELLRDLNGDDVFAG | -37
QDSLSVADYGWPNDVDQSHLDSS (domain or fragment, Arabidopsis thaliana, UniProt O82132 234-256, looked up, also called monovalent ABS fragment; source: E. coli BL21 DE3, purified (glutathione Sepharose, TEV cleavage, SEC); not shown: GST, N-terminal, cleaved) [DREB2A_(234-256) (ABS)] | -54
DREB2A_(151-335) (domain or fragment, Arabidopsis thaliana, UniProt O82132 151-335, looked up, also called C-terminal intrinsically disordered region (IDR) of DREB2A; source: E. coli BL21 DE3, purified (glutathione Sepharose, TEV cleavage, SEC); not shown: GST, N-terminal, cleaved) VCTVETPGCVHVKTEDPDCESKPFSGGVEPMYCLENGAEEMKRGVKADKHWLSEFEHNYWSDILKEKEKQKEQGIVETCQQQQQDSLSVADYGWPNDVDQSHLDSSDMFDVDELLRDLNGDDVFAGLNQDRYPGNSVANGSYRPESQQSGFDPLQSLNYGIPPFQLEGKDGNGFFDDLSYLDLEN | -52.3

Param item = DREB2A_(195-276) F259A (domain or fragment, Arabidopsis thaliana, UniProt O82132 195-276, looked up, source: E. coli BL21 DE3, purified (glutathione Sepharose, TEV cleavage, SEC); not shown: GST, N-terminal, cleaved) VKADKHWLSEFEHNYWSDILKEKEKQKEQGIVETCQQQQQDSLSVADYGWPNDVDQSHLDSSDMADVDELLRDLNGDDVFAG ; retrieve measured dH.
-58.8

I'd like to know its dH. The binder in question is QDSLSVADYGWPNDVDQSHLDSSDMFDVDELLRDLNGDDVFAG (domain or fragment, Arabidopsis thaliana, UniProt O82132 234-276, looked up, 13C,15N-labelled in the CEST experiments; Populates cis (30 ± 1%) and trans Trp244-Pro245 isomers in the free state; also called bivalent ABS-RIM fragment; source: E. coli BL21 DE3, purified (glutathione Sepharose, TEV cleavage, SEC); not shown: GST, N-terminal, cleaved) [DREB2A_(234-276) (ABS-RIM)]
-50.7

So what's the measured dH for this one? QDSLSVADYGWANDVDQSHLDSSDMFDVDELLRDLNGDDVFAG (domain or fragment, Arabidopsis thaliana, UniProt O82132 234-276, looked up, Isotope-labelled in the CEST experiments; also called ABS-RIM_(P245A); DREB2A_(P245A); source: E. coli BL21 DE3, purified (glutathione Sepharose, TEV cleavage, SEC); not shown: GST, N-terminal, cleaved) [DREB2A_(234-276,P245A)]
-43.4
